From: patent US12187723B2

Can you tell me IC50 for the items I'm about to list?
- TARGET OR TEST SYSTEM: UniProt:Q9NR97
- Sequence (Q9NR97 27-1041): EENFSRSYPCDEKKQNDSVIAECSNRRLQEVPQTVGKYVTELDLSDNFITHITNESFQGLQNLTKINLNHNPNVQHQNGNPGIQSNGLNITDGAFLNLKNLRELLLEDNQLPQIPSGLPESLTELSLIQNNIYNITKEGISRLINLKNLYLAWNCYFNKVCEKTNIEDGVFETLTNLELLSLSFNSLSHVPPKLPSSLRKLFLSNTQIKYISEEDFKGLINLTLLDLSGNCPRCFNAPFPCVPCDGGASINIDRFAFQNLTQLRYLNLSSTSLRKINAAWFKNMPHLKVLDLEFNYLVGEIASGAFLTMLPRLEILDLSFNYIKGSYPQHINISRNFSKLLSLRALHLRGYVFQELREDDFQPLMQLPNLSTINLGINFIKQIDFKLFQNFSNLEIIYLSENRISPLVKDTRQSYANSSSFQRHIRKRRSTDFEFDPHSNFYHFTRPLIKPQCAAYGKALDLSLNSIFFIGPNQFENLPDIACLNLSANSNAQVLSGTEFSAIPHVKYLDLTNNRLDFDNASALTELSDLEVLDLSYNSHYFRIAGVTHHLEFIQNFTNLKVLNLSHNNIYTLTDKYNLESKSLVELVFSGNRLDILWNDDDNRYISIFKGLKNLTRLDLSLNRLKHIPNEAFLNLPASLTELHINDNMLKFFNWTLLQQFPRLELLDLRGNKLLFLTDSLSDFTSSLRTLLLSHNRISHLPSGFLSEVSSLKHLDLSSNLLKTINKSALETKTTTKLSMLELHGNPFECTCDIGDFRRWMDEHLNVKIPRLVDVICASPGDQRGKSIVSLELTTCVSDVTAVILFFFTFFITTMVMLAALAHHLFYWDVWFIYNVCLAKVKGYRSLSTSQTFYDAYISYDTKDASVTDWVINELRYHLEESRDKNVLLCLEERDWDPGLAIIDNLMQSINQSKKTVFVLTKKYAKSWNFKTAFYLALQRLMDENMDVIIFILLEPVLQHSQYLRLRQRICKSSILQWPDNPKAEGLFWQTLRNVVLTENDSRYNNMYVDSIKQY
- EXPERIMENTAL DETAILS: TLR8 inhibition reporter assay (HEK-Blue SEAP)
- APPLIED CONDITIONS: HEK-Blue cells overexpressing human TLR8, R848 15.9 μM, 22 hour incubation
- Description: TLR7/8/9 Inhibition Reporter Assays HEK-Blue™-cells (Invivogen) overexpressing human TLR7, TLR8 or TLR9 receptors were used for screening inhibitors of these receptors using an inducible SEAP (secreted embryonic alkaline phosphatase) reporter gene under the control of the IFN-β minimal promoter fused to five NF-κB and AP-1-binding sites. […]
Remember to put the unit after the number in your answer.

INPUT: Under UniProt:Q9NR97: IC50 value of COc1cc(-c2cc3[nH]c(=O)n([C@@H]4CCCN(CCC(F)(F)F)C4)c3cc2C)cn2ncnc12 ?
OUTPUT: 121 nM

INPUT: Same for COc1cc(-c2cc3[nH]c(=O)n([C@H]4CC[C@@H](NC5CCOCC5)CC4)c3cc2C)cn2ncnc12
OUTPUT: 3.26 nM

INPUT: Same for CCc1cc2c(cc1-c1cc(OC)c3ncnn3c1)[nH]c(=O)n2[C@@H]1CCCN(CC2CCC2)C1
OUTPUT: 1.68 nM

INPUT: Same for COc1c(C)c(-c2cc3[nH]c(=O)n(C4CCC(N5CCC(F)(F)CC5)CC4)c3cc2C(C)C)cn2ncnc12 (single isomer, unassigned) [Example 230]
OUTPUT: 5.49 nM

INPUT: Same for COc1cc(-c2cc3[nH]c(=O)n([C@H]4CCCN(CC(N)=O)C4)c3cc2C(C)C)cn2ncnc12
OUTPUT: 100 nM

INPUT: Same for COCCN1CCC[C@@H](n2c(=O)[nH]c3cc(-c4cc(OC)c5ncnn5c4)c(C(C)C)cc32)C1 [Example 226]
OUTPUT: 4.15 nM

INPUT: Same for CCCN1CCC(n2c(=O)[nH]c3cc(-c4cc(OC)c5ncnn5c4)ccc32)CC1
OUTPUT: 251 nM
